The compounds listed here are annotated with their viability.
Experiment: MRP1 drug-resistance reversers in H69AR cells – cell-based, doxorubicin co-treatment, pilot screen (AID 601)
Conditions: H69AR cells, CellTiter-Glo, 72 h; compound alone cytotoxicity; at 10 µM
observed_property: viability (%)

1. COc1ccccc1-n1c(=O)[nH]c2c(C(N)=O)nc(CC(C)C)nc21
80.4
2. CCC(C)NC(=O)c1cc(CC(C)C)on1 (stereo unspecified)
83.6
3. COc1ccc(S(=O)(=O)NCc2ccc3c(c2)OCO3)cc1C(=O)O
90.1
4. Cc1c(C#N)c2ccccc2n1CC(=O)N1CCc2ccccc2C1
94.9
5. O=C(c1ccc(CSCc2ccccc2F)o1)N1CCN(c2ccc(N3CCOCC3)nn2)CC1
79.7
6. CCOC(=O)Cn1nc(-c2ccc(Cl)cc2)cc1N
101
7. Cc1cccc(Cn2c(SCC(=O)Nc3ccccc3)nc3c2c(=O)[nH]c(=O)n3C)c1
81.8
8. Cc1cccc(OCc2nc(C#N)c(NCCN(C)C)o2)c1
84.8
9. CCN1CCN(C(=O)C2CCN(C(=O)c3cc4sccc4n3CC)CC2)CC1
83
10. O=C(CCn1c(=O)oc2ccccc21)NCCN1CCOCC1
85.9
11. CC1=C(C(=O)Nc2ccc(F)cc2)C(c2cccc(C)c2)n2nc(CCCO)nc2N1 (stereo unspecified)
94

---

Test: viability of HCT116 without oncogenic beta-catenin – human colon tumor cells, pilot screen (AID 823);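 further: 0% = wells killed by 20 µM Hyamine and 100% = untreated DMSO cell wells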
Conditions: HCT116 beta-catenin knockout viability, CellTiter-Glo, 60 h; at 10 µM; stronger effect = lower value
Records with an inconclusive call do not appear. Calls of active or inactive are those of the source.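 Rule for the calls: active = cell viability at or below a set limit in both duplicate runs, the limit being the all-compound median minus 4 SD (cut at about 23% in these data, passing the limit was not always enough); inconclusive = no clear call, values can overlap the other calls; inactive = the rest.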
The molecules listed here are annotated with their viability.
observed_property: viability

1) Cc1ccc(-c2noc(CN3C(C)CCCC3C)n2)cc1 (stereo unspecified)
98.8% (inactive)
2) C=CCn1c(SCc2cccc(C#N)c2)nnc1-c1ccccc1O
96.2% (inactive)
3) COc1cc(/C=N/n2cnnc2)ccc1OCC(=O)N1CCOCC1
104% (inactive)
4) CCOC(=O)N1CCC(N2CC34C=CC(O3)C(C(=O)Nc3ccc(F)cc3)C4C2=O)CC1 (stereo unspecified)
105% (inactive)
5) Cc1ccc(C)c(NC(=O)CSc2nnc(-c3ccccc3)o2)c1
95.9% (inactive)
6) COc1cccc(/C=N/n2cnnc2)c1OCc1ccccc1
107% (inactive)
7) O=C1CC(c2ccc(Cl)c(Cl)c2)CC(O)=C1C=NCCN1CCNCC1 (stereo unspecified)
90.4% (inactive)
8) COc1ccc(-c2nc3c(c(SCC(=O)N4CCOCC4)n2)COC(C)(C)C3)cc1
101% (inactive)
9) Cc1cc(C)n2nc(SCc3nc4ccccc4[nH]3)nc2n1
91.2% (inactive)
10) O=C(COc1ccc2ccccc2c1)N1CCCC1
96.2% (inactive)
11) COCCCNC(=O)CSc1ccc(Cl)cc1
106% (inactive)
12) CC(=O)N1c2c(cc(Br)cc2S(=O)(=O)NCC2COc3ccccc3O2)CC1C (stereo unspecified)
83.2% (inactive)
13) O=C(NCc1ccccn1)C1CCC(=O)N1C1CCCC1 (stereo unspecified)
98.2% (inactive)
14) CCN1CCN(C(=O)c2cn(CC)c3ccc(S(=O)(=O)N(C)C)cc3c2=O)CC1
101% (inactive)
15) CCOC(=O)N1CCN(C(=O)c2ccc3nc4ccsc4c(=O)n3c2)CC1
101% (inactive)
16) O=C(NCCSc1c[nH]c2ccccc12)c1ccc(Br)o1
106% (inactive)
17) Cc1ccc(-c2cc(C(F)F)nc(N3CCC(C)CC3)n2)cc1
100% (inactive)
18) CCN1C(=O)c2ccccc2S(=O)c2ccc(C(=O)NCCCN3CCCC3=O)cc21 (stereo unspecified)
97.5% (inactive)
19) CCn1c(=O)c2cc(C(=O)Nc3cc(C)on3)sc2c2ccccc21
92.1% (inactive)
20) O=C(CN1C(=O)CCC1=O)Nc1nc2c(F)cc(F)cc2s1
99.4% (inactive)
21) Cc1cc(C)n2c(SCCN3C(=O)c4ccccc4C3=O)nnc2n1
102% (inactive)
22) C/C=C/CSc1nc2c(c(=O)[nH]c(=O)n2C)n1Cc1ccc(C)cc1
84.4% (inactive)
23) O=S(=O)(c1ccccc1)N1CCN(S(=O)(=O)c2ccccc2)C1
93.8% (inactive)
24) Cc1ccccc1NC(=O)C1CCCN(S(=O)(=O)c2cccc3cccnc23)C1 (stereo unspecified)
82.1% (inactive)
25) COc1ccc(C2CC(c3ccc(C)cc3)Nc3ncnn32)cc1 (stereo unspecified)
104% (inactive)
26) CC1=C(C(N)=O)C(c2cccc(O)c2)n2nc(CCCO)nc2N1 (stereo unspecified)
101% (inactive)
27) Cc1ccc(N=Cc2ccc[nH]2)c(O)c1
71.8% (inactive)
28) CCCc1nnc(NC(=O)NCCN2C(=O)C3C4C=CC(C4)C3C2=O)s1 (stereo unspecified)
101% (inactive)
29) COc1cc(NC(=O)c2cc3c(C)nc4ccccc4c3o2)cc(OC)c1OC
86.2% (inactive)
30) CCOC(=O)C1CCN(C(C(=O)NC2CCCCC2)c2ccc(OC)cc2)CC1 (stereo unspecified)
93.2% (inactive)
31) CC1CCCCN1C(=O)c1ccc(S(=O)(=O)N2CCCCC2C)cc1 (stereo unspecified)
96.7% (inactive)
32) Cc1cc(C)nc(SCC(=O)OCN2C(=O)c3ccccc3C2=O)n1
91.6% (inactive)
33) CC(=O)C1=C(N2CCCCC2)CCC1=O
94.5% (inactive)
34) COc1ccc(-c2nc(CSCC(=O)N3CCc4ccccc4C3)c(C)o2)cc1OC
93.9% (inactive)
35) O=C(c1cc2ccccn2n1)N1CCN(Cc2ccccc2)CC1
104% (inactive)
36) O=C(/C=N/O)Nc1ccccc1C(=O)O
97.1% (inactive)
37) O=C(Nc1cccc2ccccc12)c1ccc(Br)o1
94.3% (inactive)
38) CCOC(=O)N1CCN(C(=O)CSc2nnc(-c3cccs3)o2)CC1
104% (inactive)
39) O=C1NC(=O)C(CC(=O)N(Cc2ccco2)C2(C(=O)NC3CCCCC3)CCCCC2)N1 (stereo unspecified)
104% (inactive)
40) Cc1ccccc1-n1c(Cn2c(=O)sc3ccccc32)nnc1SCC(=O)N1CCCC1
98.6% (inactive)
41) O=C(Nc1nc2ccc(Cl)cc2s1)c1ccc(Br)o1
82.3% (inactive)
42) CC(=O)C1C(c2ccc(Cl)cc2)NC(=O)NC1(O)C(F)(F)F (stereo unspecified)
103% (inactive)
43) CCOC(=O)CC1C(=O)NCCN1C(=O)c1cc2c(=O)n3cccc(C)c3nc2s1 (stereo unspecified)
98% (inactive)
44) CC1(C(=O)NCc2cccnc2)CCC(=O)N1CCc1ccccc1 (stereo unspecified)
97% (inactive)
45) CN(C(=O)c1ccc2c(c1)OCO2)C1(C(=O)NC2CCCCC2)CCCCC1
90.6% (inactive)
46) Cc1cc(C)n2nc3nc4c(cc3c2n1)CCCC4
88.2% (inactive)
